B1: COUP transcription factor 1, residues 83 to 159; numbered along this chain, P10589 (parent)
chain: HIECVVCGDKSSGKHYGQFTCEGCKSFFKRSVRRNLTYTCRANRNCPIDQHHRNQCQYCRLKKCLKVGMRREAVQRG

Variants of: B1
Test: abundance fitness (aPCA) (normalised: wild type 0, dead -1); higher = more abundant; growth selection in yeast, the domain comes from the species named
Conditions: Homo sapiens
Measured abundance fitness accompanies every entry in the list below.
endpointLabel: abundance fitness

1. C24P    -0.609
2. R30Y    -0.186
3. C24A    -0.841
4. T20P    -0.402
5. S26E    0.144
6. K25M    0.177
7. Q50E    0.05
8. R34P    -0.308
9. K66F    -0.013
10. N35R    -0.196
11. A73M    -0.065
12. S26R    -0.019
13. C24Y    -0.319
14. Q18W    -0.459
15. S26V    0.088
16. Y58P    -0.587
17. V74P    -0.151
18. Q57V    -0.567
19. K29F    -0.147
20. V32C    -0.798
21. A42Q    0.239
22. N45S    0.061
